Assay: Human liver microsomal stability of compound in microsomal protein, PBS buffer pH 7.4, NADPH, glucose-6-phosphate and glucose-6-phosphate dehydrogenase media. Aliquotes were taken at 5 time points and after stopping the reaction, supernatants were analyzed using HPLC coupled with a tandem mass spectrometer. The elimination constant, half-life, and intrinsic clearance are determined as results using linear regression analysis.
Type: ADME, microsomes, Microsome
Conditions: microsomes
parameter.measured: Remaining (%)

cpd.smiles	unit.descriptor	Remaining
Cn1cc2c(C(=O)Nc3ccc4c(c3)CNC4)cc(F)cc2n1	%	100.772

1. O=C(Nc1cc(Cl)cc(C(=O)Nc2ccc3c(c2)CNC3)c1)OCc1ccccc1
2. Cc1c(C(=O)Nc2cc([C@H]3CCOC3)ccn2)cc(C2CC2)n1C
QUERY: Given the listed items, does 1 or 2 have the lesser reported Remaining? Refer to your chosen item by its label in the answer.
RESULT: 2

1. NCc1cccc([C@@H]2C[C@H]2c2cc(Cl)cc(NC(=O)OCc3ccccc3)c2)c1
2. O=C(N[C@H]1[C@H]2CCCCC[C@H]2[C@H]1C(=O)Nc1cccc(C2CCNCC2)c1)OCc1ccccc1
QUERY: Given the listed items, does 1 or 2 have the lesser reported Remaining? Refer to your chosen item by its label in the answer.
RESULT: 2

###

Test: Mouse liver microsomal stability of compound in microsomal protein, PBS buffer pH 7.4, NADPH, glucose-6-phosphate and glucose-6-phosphate dehydrogenase media. Aliquotes were taken at 5 time points and after stopping the reaction, supernatants were analyzed using HPLC coupled with a tandem mass spectrometer. The elimination constant, half-life, and intrinsic clearance are determined as results using linear regression analysis.
Format: ADME, microsomes, Microsome
Conditions: microsomes
parameter.measured: Remaining (%)

Some entries whose results are on file:
cpd.smiles	unit.descriptor	reported.result
O=C(Nc1cc2c(cc1C1CC1)CNC2)c1cc(F)cc2[nH]ncc12	%	23.262
O=C(Nc1ccc2c(c1)CNC2)c1cc(F)cc2[nH]ncc12	%	5.066
O=C(Nc1ccc2c(c1)CNC2)c1cc(Br)cc2[nH]c(-c3ccccc3)nc12	%	49.173
Cn1cc2c(C(=O)Nc3ccc4c(c3)CNC4)cc(F)cc2n1	%	76.341
O=C(NCC(F)F)[C@H](Nc1ccc2c(c1)CNC2)c1cc(Cl)cc2c1CCC2	%	60.623

a. O=C(Nc1ccc2c(c1)CNC2)c1cc(F)cc2c1CCC2
b. CNC(=O)[C@H](Nc1ccc2c(c1)CNC2)c1cc(Cl)cc(C2CC2)c1
QUERY: Recorded Remaining values differ for a and b ; which one is higher? Refer to your chosen item by its label in the answer.
RESULT: b
(b: 87.863%, a: 53.571%)

###

Assay: Mouse liver microsomal stability of compound in microsomal protein, PBS buffer pH 7.4, NADPH, glucose-6-phosphate and glucose-6-phosphate dehydrogenase media. Aliquotes were taken at 5 time points and after stopping the reaction, supernatants were analyzed using HPLC coupled with a tandem mass spectrometer. The elimination constant, half-life, and intrinsic clearance are determined as results using linear regression analysis.
Assay type: ADME, microsomes, Microsome
Settings: liver microsomes
parameter.measured: microsomal CLint (µL/min/mg)

cpd.smiles	parameter.measured	reported.result
NCc1cccc(NC(=O)[C@@H](NC(=O)OCc2ccccc2)c2ccc(OCc3ccccc3)cc2)c1	microsomal CLint	1
CSc1cc2c(cc1NC(=O)c1cc(F)cc3[nH]ncc13)CNC2	microsomal CLint	131
O=C(Nc1ccc2c(c1)CNC2)c1cccc2[nH]c(C(F)(F)F)cc12	microsomal CLint	12.7

a. O=C(Nc1ccc2c(c1)CNC2)c1cc(F)cc(-c2cn[nH]c2)c1
b. O=C(O)c1cc(Cl)ccc1NS(=O)(=O)c1ccc(Oc2ccccc2Cl)cc1
c. O=C(/C=C/c1ccccc1)C(=O)N1CCN(CCc2ccccc2)CC1
d. N#Cc1cccc(-c2nc3c(C(=O)Nc4ccc5c(c4)CNC5)cc(F)cc3[nH]2)c1
QUERY: hey, can you rank those compounds up there by microsomal CLint? biggest number first please Your answer should be the labels, listed in the requested order.
RESULT: a, c, d, b
